B1: PDLIM7 (parent)
chain: AAGGVPGGGSNNGKTPVCHQCHKV

Variants of: B1
Experiment: protein stability index of a GFP-peptide fusion (GPS, HEK-293T) (PSI 1-6); higher = more stable;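 note: lentivirally expressed fusions sorted by FACS into six bins by GFP to DsRed ratio, PSI derived from sequencing read proportions per bin multiplied by bin number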
Details: c terminus: a fixed tail appended
ENDPOINT: protein stability index
The reply should be a number, written without any unit.

The examples below pair each entry with its known result.
{"MUTATIONS": "A1V", "protein stability index": 3.93}
{"MUTATIONS": "G3S", "protein stability index": 3.42}
{"MUTATIONS": "G8W", "protein stability index": 3.56}
{"MUTATIONS": "A2W", "protein stability index": 3.88}
{"MUTATIONS": "A1M", "protein stability index": 3.5}
{"MUTATIONS": "G7I", "protein stability index": 3.1}

stdin: What does the record list as protein stability index for `A2F` ?
stdout: 3.86

stdin: Give the measured protein stability index of `P6R` .
stdout: 3.73

stdin: Find the recorded protein stability index belonging to `A2P` and report it.
stdout: 2.15

stdin: What does the data say about its protein stability index? Entry: `S10F`
stdout: 2.02

stdin: I am curious: what protein stability index value has been reported for `A1G` ?
stdout: 3.52

stdin: Quick check: protein stability index of `S10N` ?
stdout: 3.32

stdin: For the variant shown here, `G9Y` , give the reported protein stability index.
stdout: 3.56

stdin: Look up protein stability index: `G9F`
stdout: 2.39

stdin: Returns the measured protein stability index for the input variant. Input: `G8N`
stdout: 3.14

stdin: Name the recorded protein stability index for `A2V` .
stdout: 3.97
